system: 242566-281-R-J2-PDC complex spheroid viability; assay: Anticancer human tumor 242566-281-R-J2-PDC patient-derived pancreatic carcinoma cell line growth inhibition [CLK]; details: second compound 1 µM; first compound 1 µM; active = viability on the fitted dose curve at most 10% of control; inactive = the rest;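 note: spheroids exposed to compounds for 7 days before readout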
Classes used: Yes (active), No (inactive)

INSERT INTO assay_data (compound, label_class) VALUES
  ('O=c1[nH]cc(F)c(=O)[nH]1 + CNC(=O)c1ccc(Nc2nc(OC3CCCC3)c3c(-c4ccc5nc(C)oc5c4)c[nH]c3n2)c(OC)c1', 'No'),
  ('C=C(F)C(=O)N1CCN(c2nc(OCC3CCCN3C)nc3c2CCN(c2cccc4cccc(Cl)c24)C3)CC1CC#N (stereo not given) + CNC(=O)c1ccc(Nc2nc(OC3CCCC3)c3c(-c4ccc5nc(C)oc5c4)c[nH]c3n2)c(OC)c1', 'No'),
  ('COc1ccc([C@@H](O)c2cc(-c3ncnc4cc(N5CCOCC5)ccc34)c(F)cc2Cl)nn1 + CNC(=O)c1ccc(Nc2nc(OC3CCCC3)c3c(-c4ccc5nc(C)oc5c4)c[nH]c3n2)c(OC)c1', 'No'),
  ('C#Cc1c(F)ccc2cc(O)cc(-c3ncc4c(N5CC6CCC(C5)N6)nc(OCC56CCCN5CC(F)C6)nc4c3F)c12 (stereo not given) + CN1CCN(c2cc(C(=O)Nc3cc4cc(-c5cnn(C)c5)ccc4cn3)ccn2)CC1', 'Yes'),
  ('COc1c(OCCCN2CCOCC2)ccc2c3n(c(=NC(=O)c4cnc(N)nc4)nc12)CCN3 + CN1CCN(c2cc(C(=O)Nc3cc4cc(-c5cnn(C)c5)ccc4cn3)ccn2)CC1', 'Yes'),
  ('C#Cc1c(F)ccc2cc(O)cc(-c3ncc4c(N5CC6CCC(C5)N6)nc(OCC56CCCN5CC(F)C6)nc4c3F)c12 (stereo not given) + CNC(=O)c1ccc(Nc2nc(OC3CCCC3)c3c(-c4ccc5nc(C)oc5c4)c[nH]c3n2)c(OC)c1', 'No'),
  ('CCc1c2c(nc3ccc(O)cc13)-c1cc3c(c(=O)n1C2)COC(=O)[C@]3(O)CC + CN1CCN(c2cc(C(=O)Nc3cc4cc(-c5cnn(C)c5)ccc4cn3)ccn2)CC1', 'Yes'),
  ('C=CC(=O)N1CCN(c2nc(=O)n(-c3c(C)ccnc3C(C)C)c3nc(-c4c(O)cccc4F)c(F)cc23)C(C)C1 (stereo not given) + CNC(=O)c1ccc(Nc2nc(OC3CCCC3)c3c(-c4ccc5nc(C)oc5c4)c[nH]c3n2)c(OC)c1', 'No'),
  ('C=C(F)C(=O)N1CCN(c2nc(OCC3CCCN3C)nc3c2CCN(c2cccc4cccc(Cl)c24)C3)CC1CC#N (stereo not given) + CN1CCN(c2cc(C(=O)Nc3cc4cc(-c5cnn(C)c5)ccc4cn3)ccn2)CC1', 'Yes'),
  ('CC1COCCN1c1cc(C2(S(C)(=N)=O)CC2)nc(-c2ccnc3[nH]ccc23)n1 (stereo not given) + CNC(=O)c1ccc(Nc2nc(OC3CCCC3)c3c(-c4ccc5nc(C)oc5c4)c[nH]c3n2)c(OC)c1', 'No');

Taken from PubChem BioAssay AID2060622.
